details: 288.15 K; 101.33 kPa; Liquid; Alternating current cell with electrodes
Each entry gets False if its electrical conductivity stays under 0.2 S/m, and True if its electrical conductivity is 0.2 S/m or above.

Example results:
# MOLECULE, CLASS_ASSIGNMENT
rows = [
    ("CCCCn1cc[n+](C)c1.O=P([O-])(O)O [1-butyl-3-methylimidazolium dihydrogen phosphate]", "True"),
    ("CCCCC[n+]1ccn(C)c1.O=P([O-])(O)O [1-methyl-3-pentylimidazolium dihydrogen phosphate]", "False"),
    ("CCCCCn1cc[n+](C)c1.O=C([O-])O [3-methyl-1-pentylimidazolium hydrogen carbonate]", "False"),
]

Is it the case that CCC[n+]1ccn(C)c1.O=P([O-])(O)O [1-methyl-3-propylimidazolium dihydrogen phosphate] has electrical conductivity reaching or exceeding 0.2 S/m?
True

Is it the case that CCCCn1cc[n+](C)c1.O=C([O-])O [1-butyl-3-methylimidazolium hydrogen carbonate] has electrical conductivity reaching or exceeding 0.2 S/m?
True
